- Study System: human KDR (human, UniProt P35968 20-1356)
- Sequence (P35968 20-1356): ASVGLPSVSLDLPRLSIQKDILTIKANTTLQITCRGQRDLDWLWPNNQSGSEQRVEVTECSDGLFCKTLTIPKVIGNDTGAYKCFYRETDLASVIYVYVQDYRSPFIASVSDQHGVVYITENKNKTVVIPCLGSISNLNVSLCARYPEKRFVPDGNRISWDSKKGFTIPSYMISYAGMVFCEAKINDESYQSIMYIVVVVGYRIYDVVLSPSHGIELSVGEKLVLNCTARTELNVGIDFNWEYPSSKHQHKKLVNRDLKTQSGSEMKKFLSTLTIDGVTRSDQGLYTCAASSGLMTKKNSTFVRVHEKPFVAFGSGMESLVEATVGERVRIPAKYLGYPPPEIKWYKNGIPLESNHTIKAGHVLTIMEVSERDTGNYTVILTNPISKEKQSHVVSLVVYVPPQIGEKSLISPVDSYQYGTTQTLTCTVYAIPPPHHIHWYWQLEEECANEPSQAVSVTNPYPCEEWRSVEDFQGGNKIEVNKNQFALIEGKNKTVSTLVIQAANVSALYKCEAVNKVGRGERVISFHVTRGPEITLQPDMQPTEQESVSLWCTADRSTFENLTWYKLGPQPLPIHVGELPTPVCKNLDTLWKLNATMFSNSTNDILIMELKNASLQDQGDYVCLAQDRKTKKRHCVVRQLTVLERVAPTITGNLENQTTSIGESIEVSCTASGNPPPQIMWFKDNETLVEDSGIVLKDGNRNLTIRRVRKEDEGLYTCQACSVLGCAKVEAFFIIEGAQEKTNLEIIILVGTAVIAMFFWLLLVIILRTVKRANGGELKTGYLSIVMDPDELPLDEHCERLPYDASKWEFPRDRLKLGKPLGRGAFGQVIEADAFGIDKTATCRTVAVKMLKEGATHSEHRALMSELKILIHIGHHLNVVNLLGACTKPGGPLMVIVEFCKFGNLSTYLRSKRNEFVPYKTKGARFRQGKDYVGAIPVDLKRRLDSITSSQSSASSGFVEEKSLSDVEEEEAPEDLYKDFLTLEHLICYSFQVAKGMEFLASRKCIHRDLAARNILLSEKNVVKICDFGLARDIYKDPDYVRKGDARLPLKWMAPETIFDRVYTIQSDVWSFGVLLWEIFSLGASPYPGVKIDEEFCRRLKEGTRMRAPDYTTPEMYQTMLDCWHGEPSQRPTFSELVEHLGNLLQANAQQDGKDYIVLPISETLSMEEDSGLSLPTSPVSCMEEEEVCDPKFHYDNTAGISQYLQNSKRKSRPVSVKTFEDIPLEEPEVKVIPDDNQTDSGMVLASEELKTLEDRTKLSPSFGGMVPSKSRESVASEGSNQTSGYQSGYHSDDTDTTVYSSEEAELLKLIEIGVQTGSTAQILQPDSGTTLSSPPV
- Test: cell-based or functional assay
Reported Endpoint: 6-keto Prostaglandin F1α release, EC50 (nM), Average
Give bare numbers, in nM.

Here's what some known entries look like.
>  <Binder>
33E1 (antibody, V domains shown, Fully human monoclonal antibody from a XenoMouse hybridoma (IgG2 or IgG4 strain), purified) VH: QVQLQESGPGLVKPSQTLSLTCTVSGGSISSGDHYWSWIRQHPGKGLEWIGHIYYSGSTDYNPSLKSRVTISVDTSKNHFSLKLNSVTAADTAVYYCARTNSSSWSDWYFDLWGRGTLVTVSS VL: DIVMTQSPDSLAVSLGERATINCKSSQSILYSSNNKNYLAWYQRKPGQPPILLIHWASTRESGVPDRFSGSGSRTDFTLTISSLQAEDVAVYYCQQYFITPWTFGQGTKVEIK

>  <Reported Value>
5.1

$$$$
>  <Binder>
32F4 (antibody, V domains shown, Fully human monoclonal antibody from a XenoMouse hybridoma (IgG2 or IgG4 strain), purified) VH: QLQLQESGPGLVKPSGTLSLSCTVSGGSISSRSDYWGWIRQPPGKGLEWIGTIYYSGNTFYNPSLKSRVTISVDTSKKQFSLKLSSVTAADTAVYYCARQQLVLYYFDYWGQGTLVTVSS VL: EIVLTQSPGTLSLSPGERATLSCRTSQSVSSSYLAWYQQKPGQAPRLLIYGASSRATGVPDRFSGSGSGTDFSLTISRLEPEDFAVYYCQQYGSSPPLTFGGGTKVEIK

>  <Reported Value>
4.5

$$$$

# next binder below
Specify reported 6-keto Prostaglandin F1α release, EC50 (nM), Average for the binder shown: 27A3 (antibody, V domains shown, Fully human monoclonal antibody from a XenoMouse hybridoma (IgG2 or IgG4 strain), purified) VH: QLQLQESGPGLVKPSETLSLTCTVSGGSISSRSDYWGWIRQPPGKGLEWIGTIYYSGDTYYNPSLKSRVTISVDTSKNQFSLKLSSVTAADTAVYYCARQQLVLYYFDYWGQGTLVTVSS VL: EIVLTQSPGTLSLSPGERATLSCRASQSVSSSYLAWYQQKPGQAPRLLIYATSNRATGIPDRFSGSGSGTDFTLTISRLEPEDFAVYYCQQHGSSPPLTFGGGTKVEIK 5.6
